Provenance of the data: patent US20250101013A1

- system_under_test: UniProt:P30542
- protocol_details: Intracellular cAMP functional assay (HTRF), A1
- Format: cell-based
- experimental_conditions: HEK293 cells expressing recombinant human receptor
measured_metric: EC50 (nM)
The reply should be a number in nM, with the unit left off.

These recorded examples may help you get a feel for the data.
>  <compound_structure_string>
N#Cc1cccc(-c2nc(Nc3n[nH]c(C4CC4)n3)sc2-c2ccncc2Cl)c1

>  <EC50 / nM>
2.3

$$$$
>  <compound_structure_string>
Cc1cc(-c2sc(Nc3n[nH]c(CO)n3)nc2-c2cccc(C#N)c2)c(C)cn1

>  <EC50 / nM>
36.1

$$$$
>  <compound_structure_string>
Cc1cc(-c2sc(Nc3n[nH]c(C4CC4)n3)nc2-c2cccc(C#N)c2)ccn1

>  <EC50 / nM>
1.7

$$$$
>  <compound_structure_string>
N#Cc1cccc(-c2nc(Nc3n[nH]c(C4CC4)n3)sc2-c2ccncc2)c1

>  <EC50 / nM>
0.8

$$$$
>  <compound_structure_string>
Cc1nccn1-c1sc(Nc2nc[nH]n2)nc1-c1cccc(C#N)c1

>  <EC50 / nM>
145

$$$$

Qu. Value lookup for EC50; key = Cc1cc(-c2sc(Nc3n[nH]c(C)n3)nc2-c2cccc(C#N)c2)c(C)cn1
Ans. 65

Qu. Query Cc1cc(-c2sc(Nc3n[nH]c(C4CC4)n3)nc2-c2cccc(C#N)c2)c(C)cn1 next
Ans. 16.4

Qu. What about Cn1cc(-c2sc(Nc3n[nH]c(C4CC4)n3)nc2-c2cccc(C#N)c2)ccc1=O ?
Ans. 4.8

Qu. Follow-up item: Cc1nccn1-c1sc(Nc2n[nH]c(C3CC3)n2)nc1-c1cccc(C#N)c1
Ans. 107

Qu. Record: N#Cc1cccc(-c2nc(Nc3n[nH]c(C4CC4)n3)sc2-c2ccncc2F)c1
Ans. 0.78

Qu. Record: Cc1cnncc1-c1sc(Nc2n[nH]c(C3CC3)n2)nc1-c1cccc(C#N)c1
Ans. 115

Qu. And Cc1nccc(-c2sc(Nc3n[nH]c(C4CC4)n3)nc2-c2cccc(C#N)c2)c1C ?
Ans. 1.2

###

- system_under_test: human A2A receptor (Homo sapiens (Human))
- protocol_details: Intracellular cAMP functional assay (HTRF), A2A
- Assay type: cell-based
- experimental_conditions: HEK293 cells expressing recombinant human receptor
measured_metric: pEC50
pEC50 is defined as minus the log10 of a concentration measured in mol/L.

Observe how each entry below is paired with its result.
>  <compound>
N#Cc1cccc(-c2nc(Nc3n[nH]c(C4CC4)n3)sc2-c2ccncc2F)c1 [Compound 2]

>  <pEC50>
7.10

$$$$
>  <compound>
CCc1nccn1-c1sc(Nc2n[nH]c(C)n2)nc1-c1cccc(C#N)c1 [Compound 16]

>  <pEC50>
7.21

$$$$
>  <compound>
Cc1cc(-c2sc(Nc3n[nH]c(C4CC4)n3)nc2-c2cccc(C#N)c2)ccn1 [Compound 7]

>  <pEC50>
7.61

$$$$

Qu. So what's the measured pEC50 for this one? N#Cc1cccc(-c2nc(Nc3nc[nH]n3)sc2-n2ccnc2CO)c1 [Compound 19]
Ans. 5.24

###

- system_under_test: human A3 receptor (Homo sapiens (Human))
- Sequence (P0DMS8 whole entry): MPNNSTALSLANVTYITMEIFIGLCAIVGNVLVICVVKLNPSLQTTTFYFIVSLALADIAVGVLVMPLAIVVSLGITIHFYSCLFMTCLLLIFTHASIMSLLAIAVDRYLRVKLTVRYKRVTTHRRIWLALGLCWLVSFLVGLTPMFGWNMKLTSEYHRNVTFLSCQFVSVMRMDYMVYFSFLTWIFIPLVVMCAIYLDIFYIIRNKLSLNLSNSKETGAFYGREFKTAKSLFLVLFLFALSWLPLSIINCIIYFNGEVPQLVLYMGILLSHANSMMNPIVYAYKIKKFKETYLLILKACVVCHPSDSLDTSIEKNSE
- protocol_details: Intracellular cAMP functional assay (HTRF), A3
- Assay type: cell-based
- experimental_conditions: HEK293 cells expressing recombinant human receptor
- Protocol: Compound activity in human adenosine receptors A2A, A2B, A1, and A3 was measured in this functional cellular assay using an HTRF kit (Perkin Elmer). […] Dose response curves were performed in parallel with the reference compounds. The reference compounds used for A2A, A2B, A1, and A3, were respectively NECA, ZM241385, DPCPX, MRS. 12 μl of cells were mixed with 6 μl of the test compound at increasing concentrations and then incubated 10 min. […]
pEC50: −log10 of the molar value.
measured_metric: pEC50

Solved cases below.
>  <compound>
Cn1cc(-c2sc(Nc3n[nH]c(C4CC4)n3)nc2-c2cccc(C#N)c2)ccc1=O [Compound 29]

>  <pEC50>
< 4.52

$$$$
>  <compound>
Cc1nc(Nc2nc(-c3cccc(C#N)c3)c(-n3ccnc3CO)s2)n[nH]1 [Compound 21]

>  <pEC50>
< 4.52

$$$$
>  <compound>
N#Cc1cccc(-c2nc(Nc3n[nH]c(C4CC4)n3)sc2-c2ccncc2)c1 [Compound 26]

>  <pEC50>
< 4.52

$$$$

Qu. Short answer please: pEC50, human A3 receptor (Homo sapiens (Human)), entry Cc1cnccc1-c1sc(Nc2n[nH]c(C3CC3)n2)nc1-c1cccc(C#N)c1 [Compound 3]
Ans. < 4.70

###

- system_under_test: human A1 receptor (Homo sapiens (Human), UniProt P30542)
- Sequence (P30542 whole entry): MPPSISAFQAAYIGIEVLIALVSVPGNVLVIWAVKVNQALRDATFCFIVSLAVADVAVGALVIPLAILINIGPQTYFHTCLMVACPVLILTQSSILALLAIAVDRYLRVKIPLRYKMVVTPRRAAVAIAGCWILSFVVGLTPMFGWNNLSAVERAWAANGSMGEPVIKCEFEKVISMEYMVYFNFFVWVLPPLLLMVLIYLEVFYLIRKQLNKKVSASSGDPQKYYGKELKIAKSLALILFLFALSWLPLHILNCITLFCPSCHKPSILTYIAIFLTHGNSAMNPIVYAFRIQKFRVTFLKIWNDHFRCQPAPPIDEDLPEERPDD
- protocol_details: Radioligand binding assay, A1 ([3H]-DPCPX, CHO-K1 membranes)
- experimental_conditions: *Measured by radioligand binding
pEC50: −log10 of the molar value.
measured_metric: pEC50

Qu. Look up pEC50: Fc1ccccc1-c1nc(Nc2n[nH]c(C3CCC3)n2)sc1-c1ccncc1F
Ans. > 8.30

###

- system_under_test: human A2B receptor (Homo sapiens (Human))
- Sequence (P29275 whole entry): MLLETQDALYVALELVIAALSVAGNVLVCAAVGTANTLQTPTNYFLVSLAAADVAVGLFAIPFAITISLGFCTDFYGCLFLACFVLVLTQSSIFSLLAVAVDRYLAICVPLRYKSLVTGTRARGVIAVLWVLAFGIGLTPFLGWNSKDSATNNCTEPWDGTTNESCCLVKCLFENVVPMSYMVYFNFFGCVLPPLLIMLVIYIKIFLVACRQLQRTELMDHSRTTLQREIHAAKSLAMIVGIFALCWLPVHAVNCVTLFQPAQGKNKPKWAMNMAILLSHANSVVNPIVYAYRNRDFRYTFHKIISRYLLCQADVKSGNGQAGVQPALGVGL
- protocol_details: Radioligand binding assay, A2B ([3H]-DPCPX, HEK293 membranes)
- experimental_conditions: *Measured by radioligand binding
measured_metric: pEC50
Scale note: pEC50 = -log10(concentration in M).

Qu. // lookup pEC50 for Fc1ccccc1-c1nc(Nc2n[nH]c(C3CCC3)n2)sc1-c1ccncc1F
Ans. 8.66

###

- system_under_test: human A2B receptor (Homo sapiens (Human))
- protocol_details: Intracellular cAMP functional assay (HTRF), A2B
- Type: cell-based
- experimental_conditions: HEK293 cells expressing recombinant human receptor
pEC50: −log10 of the molar value.
Param threshold (9) applies to pEC50; output class 1 when value >= threshold, class 0 when value < threshold.

Consider the worked cases shown below.
>  <compound>
Cc1nccn1-c1sc(Nc2nc[nH]n2)nc1-c1cccc(C#N)c1 [Compound 9]

>  <class>
class 0

$$$$
>  <compound>
Cc1cc(-c2sc(Nc3n[nH]c(C)n3)nc2-c2cccc(C#N)c2)c(C)cn1 [Compound 13]

>  <class>
class 0

$$$$
>  <compound>
N#Cc1cccc(-c2nc(Nc3n[nH]c(C4CC4)n3)sc2-c2ccncc2F)c1 [Compound 2]

>  <class>
class 1

$$$$

With those in mind, consider the next compound.
Qu. Confirm if pEC50 reported for the compound N#Cc1cccc(-c2nc(Nc3n[nH]c(C4CC4)n3)sc2-c2ccnnc2)c1 [Compound 25] is 9 or above.
Ans. class 0

###

- system_under_test: human A2A receptor (Homo sapiens (Human), UniProt P29274)
- Sequence (P29274 whole entry): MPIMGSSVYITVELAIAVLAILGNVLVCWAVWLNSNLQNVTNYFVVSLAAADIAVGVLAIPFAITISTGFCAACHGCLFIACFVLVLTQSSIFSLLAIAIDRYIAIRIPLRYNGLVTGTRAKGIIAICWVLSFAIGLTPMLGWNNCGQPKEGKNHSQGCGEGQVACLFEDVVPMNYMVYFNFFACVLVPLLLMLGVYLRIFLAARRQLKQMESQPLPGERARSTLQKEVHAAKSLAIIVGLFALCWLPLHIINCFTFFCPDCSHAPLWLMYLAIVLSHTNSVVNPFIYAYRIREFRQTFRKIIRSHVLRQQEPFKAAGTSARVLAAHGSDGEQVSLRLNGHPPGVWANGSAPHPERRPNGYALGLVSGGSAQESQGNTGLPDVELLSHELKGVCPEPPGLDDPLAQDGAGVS
- protocol_details: Intracellular cAMP functional assay (HTRF), A2A
- Format: cell-based
- experimental_conditions: HEK293 cells expressing recombinant human receptor
Below, each entry is listed with its recorded pEC50.
A value of pEC50 is the negative decimal logarithm of a concentration given in moles per litre.

Completed entries (count: 2):
>  <molecule>
N#Cc1cccc(-c2nc(Nc3n[nH]c(C4CC4)n3)sc2-c2ccncc2Cl)c1 [Compound 5]

>  <pEC50>
6.32

$$$$
>  <molecule>
Cc1nccc(-c2sc(Nc3n[nH]c(C4CC4)n3)nc2-c2cccc(C#N)c2)c1C [Compound 6]

>  <pEC50>
6.69

$$$$

Now let's try a different one.
Qu. Value lookup for pEC50; key = Cn1cc(-c2sc(Nc3n[nH]c(C4CC4)n3)nc2-c2cccc(C#N)c2)ccc1=O [Compound 29]
Ans. 8.96

###

- system_under_test: human A2B receptor (Homo sapiens (Human))
- protocol_details: Intracellular cAMP functional assay (HTRF), A2B
- Type: cell-based
- experimental_conditions: HEK293 cells expressing recombinant human receptor
measured_metric: EC50 (nM)
Express it in nM; write the number only.

>  <compound_structure_string>
Cc1cc(-c2sc(Nc3n[nH]c(C4CC4)n3)nc2-c2cccc(C#N)c2)ccn1

>  <EC50, nM>
1.4

$$$$
>  <compound_structure_string>
N#Cc1cccc(-c2nc(Nc3n[nH]c(C4CC4)n3)sc2-c2ccncn2)c1

>  <EC50, nM>
2.3

$$$$
>  <compound_structure_string>
N#Cc1cccc(-c2nc(Nc3n[nH]c(C4CC4)n3)sc2-n2ccnc2CO)c1

>  <EC50, nM>
2.4

$$$$
>  <compound_structure_string>
Cc1cnccc1-c1sc(Nc2n[nH]c(C3CC3)n2)nc1-c1cccc(C#N)c1

>  <EC50, nM>
0.38

$$$$
>  <compound_structure_string>
N#Cc1cccc(-c2nc(Nc3n[nH]c(C4CC4)n3)sc2-c2ccncc2Cl)c1

>  <EC50, nM>
0.76

$$$$
>  <compound_structure_string>
CCc1nc(Nc2nc(-c3cccc(C#N)c3)c(-n3ccnc3CO)s2)n[nH]1

>  <EC50, nM>
1.26

$$$$
>  <compound_structure_string>
Cn1cc(-c2sc(Nc3n[nH]c(C4CC4)n3)nc2-c2cccc(C#N)c2)ccc1=O

>  <EC50, nM>
0.4

$$$$

Qu. Report EC50 for Cc1nccc(-c2sc(Nc3n[nH]c(C4CC4)n3)nc2-c2cccc(C#N)c2)c1C tested on human A2B receptor (Homo sapiens (Human)).
Ans. 0.84
